molecular target: CK2α/CK2β interaction (CK2α^1−335 / fluorescently labeled CK2β^1−193) (Homo sapiens, UniProt P68400)
Sequence (P68400 1-335): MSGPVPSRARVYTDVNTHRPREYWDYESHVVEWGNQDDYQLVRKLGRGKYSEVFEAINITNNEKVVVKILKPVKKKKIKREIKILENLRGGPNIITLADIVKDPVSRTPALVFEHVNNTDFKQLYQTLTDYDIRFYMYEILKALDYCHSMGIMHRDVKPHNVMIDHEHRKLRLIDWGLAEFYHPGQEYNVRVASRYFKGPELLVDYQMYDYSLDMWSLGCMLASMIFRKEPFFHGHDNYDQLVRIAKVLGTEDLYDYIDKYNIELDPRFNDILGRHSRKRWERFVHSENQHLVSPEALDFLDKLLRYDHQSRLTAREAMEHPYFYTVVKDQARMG
pKi: −log10 of the molar value.
pKi values for the compounds below.
RECORDED_METRIC: pKi

- COMPOUND: "COc1cc([C@@H]2c3c([nH]c4ccccc34)[C@H](C(=O)N3C(=O)OC[C@@H]3Cc3ccccc3)[C@@H]3C(=O)N(C)C(=O)[C@H]23)cc(OC)c1OC [(−)‐10 b]"
  RECORDED_METRIC: "pKi"
  NUMBER: 5.43
- COMPOUND: "COc1cc([C@H]2c3c([nH]c4ccccc34)[C@@H](C(=O)N3C(=O)OC[C@@H]3Cc3ccccc3)[C@H]3C(=O)N(C)C(=O)[C@@H]23)cc(OC)c1OC [(+)‐10 a]"
  RECORDED_METRIC: "pKi"
  NUMBER: 5.55
- COMPOUND: "CCOC(=O)C1c2[nH]c3ccccc3c2C(c2cc(OC)c(OC)c(OC)c2)C2C(=O)NC(=O)C12 (racemic) [(±)‐11]"
  RECORDED_METRIC: "pKi"
  NUMBER: 4.49
- COMPOUND: "COc1cc([C@@H]2c3c([nH]c4ccccc34)[C@H](C(=O)N3C(=O)OC[C@H]3Cc3ccccc3)[C@@H]3C(=O)NC(=O)[C@H]23)cc(OC)c1OC [(−)‐9 a]"
  RECORDED_METRIC: "pKi"
  NUMBER: 5.44
- COMPOUND: "COc1cc([C@@H]2c3c([nH]c4ccccc34)[C@H](C(=O)N3C(=O)OC[C@@H]3Cc3ccccc3)[C@@H]3C(=O)NC(=O)[C@H]23)cc(OC)c1OC [(−)‐9 b]"
  RECORDED_METRIC: "pKi"
  NUMBER: 5.36
- COMPOUND: "COc1cc([C@@H]2c3c([nH]c4ccccc34)[C@@H](C(=O)O)[C@@H]3C(=O)NC(=O)[C@H]23)cc(OC)c1OC (racemic) [(±)‐12]"
  RECORDED_METRIC: "pKi"
  NUMBER: 5.74
